Tested on: MDA-MB-435
Assay: NCI tumour cell line growth inhibition, 48 h
// values below are reported TGI
measured_attribute: TGI

molecule: [C-]#[N+]C1(C(=O)OCC)CC1
result: > 100 µM

molecule: COc1ccc2c(c1)N=C1CSC(c3c(Cl)cccc3[N+](=O)[O-])N1C2 (centres undefined)
result: > 100 µM

molecule: Oc1ccc(N=Nc2ccc(N=Nc3ccccc3)cc2)cc1
result: 14.7 µM

molecule: CCOC(=O)C1=NN(c2ccccc2)C2=CC(C)=NN(C)C(=S)N21
result: > 100 µM

###

// values below are reported TGI
Tested on: LXFL 529 NSCLC
Experiment: NCI tumour cell line growth inhibition, 48 h

molecule: Cc1ccc(S(=O)(=O)c2c3[nH]c4ccccc4nc3n3c2nc2ccccc23)cc1
TGI: > 100 µM
--
molecule: CCOc1ccccc1NC(=O)C1=C(C)NC(C)=C(C(=O)Nc2ccccc2OCC)C1c1ccc(NC(C)=O)cc1
TGI: > 100 µM
--
molecule: CNc1nc(N(C)C)nc(N(C)C)n1
TGI: > 100 µM
--
molecule: O=P1(O)c2ccccc2Nc2cc(C(F)(F)F)ccc21
TGI: > 100 µM
--
molecule: C/C(=N\O)C(CN1CCCCC1)C(c1ccccc1)c1c(O)c2ccccc2oc1=O (stereo not given)
TGI: > 100 µM
--
molecule: Clc1ccc(SCCCCCCCCCCSc2ccc(Cl)cc2)cc1
TGI: > 100 µM
--
molecule: CC1=Nn2c(nnc2-c2ccc(N)cc2)NC(C)(C)C1
TGI: > 100 µM
--
molecule: O=C(/C=C1/NC(=O)CS1)Nc1ccccc1
TGI: > 100 µM
--
molecule: N#CN1CCC=C(c2cc3ccccc3[nH]2)C1
TGI: > 448 µM
--
molecule: O=C1c2c(nc3ccccc3c2-c2ccccc2)CN1Nc1ccccc1
TGI: > 100 µM
--
molecule: C[CH2][Sn]([Cl])([Cl])[CH2]C
TGI: 25.2 µM
--
molecule: N#CC(NNC(=O)c1ccccc1O)c1ccccc1 (stereo not given)
TGI: > 100 µM
--
molecule: N#CC(C#N)=C1SCC(=O)CS1
TGI: > 100 µM
--
molecule: Cc1ccc(C2=C(c3ccccc3)C(Br)(c3ccccc3)C(c3ccccc3)=C2c2ccc(C)cc2)cc1
TGI: > 100 µM
--
molecule: COc1cc(/C=C2/C(=O)NC(Cc3cc(OC)c(OC)c(C)c3OC)C(=O)N2Cc2ccccc2)c(OC)c(C)c1OC (stereo not given)
TGI: > 100 µM
--
molecule: Cn1c(=O)c(C(=O)NC(=O)OCc2ccccc2)cn(CCSCCOC(=O)NCCCCCCNC(=O)OCCSCCn2cc(C(=O)NC(=O)OCc3ccccc3)c(=O)n(C)c2=O)c1=O
TGI: > 100 µM
--
molecule: CCCCCCCSCC1C(=O)C23C(O)C1CCC2C12COC3(O)C(O)C1C(C)(C)CCC2O (stereo not given)
TGI: 6.88 µM
--
molecule: COC1=CC(=O)[C@]2(C)[C@H](C1=O)C(C)[C@H]2c1ccccc1 (stereo not given in full)
TGI: > 100 µM
--
molecule: C=CCCCCCC(O)C(O)C/C=C\C/C=C\CC (stereo not given)
TGI: > 18.8 µM
--
molecule: FC(F)(F)C1(C(F)(F)F)O[SiH]2(OC(C(F)(F)F)(C(F)(F)F)c3ccccc32)c2ccccc21
TGI: 38.5 µM

Source listed as PubChem BioAssay (NCI).
